Reference source: patent US9994594B2

Entries and their pIC50 values follow.
- test-system: arginase II (ARG II) (Homo sapiens, UniProt P78540)
- Sequence (P78540 23-354): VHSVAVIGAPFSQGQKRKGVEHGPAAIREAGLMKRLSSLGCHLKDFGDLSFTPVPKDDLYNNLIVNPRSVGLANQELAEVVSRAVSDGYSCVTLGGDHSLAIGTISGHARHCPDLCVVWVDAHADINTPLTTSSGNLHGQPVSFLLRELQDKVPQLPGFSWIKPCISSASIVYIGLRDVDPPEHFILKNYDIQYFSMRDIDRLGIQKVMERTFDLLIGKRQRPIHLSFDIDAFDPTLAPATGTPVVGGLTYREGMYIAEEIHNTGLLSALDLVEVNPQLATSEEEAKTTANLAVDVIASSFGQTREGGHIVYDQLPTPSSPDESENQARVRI
- measurement-protocol: Inhibition of arginase II, spectrophotometric urea assay at 530 nm
- Format: biochemical
- assay-context: Formula II compounds, Table 2-A; read-out: Potency (ARG)
pIC50: −log10 of the molar value. Structures can show the parent of a compound that is named as a salt.

NC(CCCCB(O)O)(C(=O)O)C1CCN(CCCc2ccc(Cl)cc2)CC1 (stereo not shown): 6.60 to 10.00
NC(CCCCB(O)O)(C(=O)O)[C@H]1C[C@@H](NCc2ccccc2)C1 (stereo partly shown) [Example 74-A, dihydrochloride]: 6.60 to 10.00
NC(CCCCB(O)O)(C(=O)O)C1CCN(c2cc(C(F)(F)F)ccn2)CC1 (stereo not shown): 5.30 to 5.70
NC(CCCCB(O)O)(C(=O)O)[C@H]1C[C@@H](NCc2cccc3ccccc23)C1 (stereo partly shown) [Example 80-A, dihydrochloride]: 6.60 to 10.00
NC(CCCCB(O)O)(C(=O)O)C1CCC(c2ccc(Cl)cc2)CC1 (stereo not shown) [Example 86-A, hydrochloride]: < 5.30
NC(CCCCB(O)O)(C(=O)O)C1CCN(c2nc3ccc(Cl)cc3s2)CC1 (stereo not shown) [11-A, dihydrochloride]: 6.00 to 6.60
NC(CCCCB(O)O)(C(=O)O)C1CCN(Cc2cccc3ccccc23)CC1 (stereo not shown) [Example 98-A, dihydrochloride]: 6.60 to 10.00
NC(CCCCB(O)O)(C(=O)O)C1CCN(C(=S)Nc2ccc(Cl)cc2)C1 (stereo not shown) [35-A, hydrochloride]: 6.00 to 6.60
NC(CCCCB(O)O)(C(=O)O)[C@H]1C[C@@H](N)C1 (stereo partly shown) [Example 81-A, dihydrochloride]: 6.60 to 10.00
NC(CCCCB(O)O)(C(=O)O)C1CCN(c2nc3ccc(Cl)cc3o2)CC1 (stereo not shown) [4-A, hydrochloride]: 5.70 to 6.00

Query: Please look up its pIC50: NC(CCCCB(O)O)(C(=O)O)C1CCN(Cc2ccccc2C(F)(F)F)CC1 (stereo not shown) [Example 53-A, dihydrochloride]
Response: 6.00 to 6.60

Query: Which value of pIC50 has been reported for NC(CCCCB(O)O)(C(=O)O)C1CCN(Cc2ccc(Cl)cc2Cl)CC1 (stereo not shown) [Example 97-A, dihydrochloride] in the records?
Response: 6.00 to 6.60

Query: So what does the record say about pIC50 for NC(CCCCB(O)O)(C(=O)O)[C@@H]1CC(=O)N(c2ccc(Cl)cc2)C1 (stereo partly shown) [14-A, hydrochloride] ?
Response: 5.30 to 5.70

Query: Recorded pIC50 of NC(CCCCB(O)O)(C(=O)O)C1CCN(C2CCCC2)CC1 (stereo not shown) [24-A, dihydrochloride] , please.
Response: 6.00 to 6.60

Query: Value lookup for pIC50; key = NC(CCCCB(O)O)(C(=O)O)C1CCN(Cc2ccc3ccccc3c2)CC1 (stereo not shown) [Example 99-A, dihydrochloride]
Response: 6.60 to 10.00

----------
- test-system: UniProt P78540
- measurement-protocol: Inhibition of arginase II, spectrophotometric urea assay at 530 nm
- Type: biochemical
- assay-context: Formula I compounds, Table 2; read-out: Potency (ARG II)
pIC50: −log10 of the molar value. Structures can show the parent of a compound that is named as a salt.
# reported pIC50; entries follow

Example entries begin here.
COCCCC(N)(CCCCB(O)O)C(=O)O (stereo not shown) [compound 100, hydrochloride]: < 5.30
CCN1Cc2ccccc2CC1CCC(N)(CCCCB(O)O)C(=O)O (stereo not shown) [compound 130, dihydrochloride]: 6.00 to 6.60
COC1CCN(CCC(N)(CCCCB(O)O)C(=O)O)CC1 (stereo not shown) [compound 41, dihydrochloride]: 5.30 to 5.70

Query: Recorded pIC50 for NC(CCCCB(O)O)(CCCNCCc1ccc(Cl)cc1Cl)C(=O)O (stereo not shown) [compound 140, dihydrochloride] , please?
Response: 6.60 to 10.00

----------
- test-system: human arginase I (ARG I) (Homo sapiens)
- Sequence (P05089 1-322): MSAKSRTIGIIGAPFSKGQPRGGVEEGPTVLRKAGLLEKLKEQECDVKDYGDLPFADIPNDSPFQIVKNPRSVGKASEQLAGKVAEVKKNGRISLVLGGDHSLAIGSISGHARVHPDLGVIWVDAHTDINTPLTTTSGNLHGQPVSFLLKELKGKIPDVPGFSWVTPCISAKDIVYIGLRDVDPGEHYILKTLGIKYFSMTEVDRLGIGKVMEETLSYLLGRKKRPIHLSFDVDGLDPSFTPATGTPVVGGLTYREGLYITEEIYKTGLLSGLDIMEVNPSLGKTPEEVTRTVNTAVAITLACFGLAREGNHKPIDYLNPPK
- measurement-protocol: Inhibition of arginase I, spectrophotometric urea assay at 530 nm
- Assay type: biochemical
- assay-context: Formula I compounds, Table 2; read-out: Potency (ARG I)
Counter-ions that a name gives are not always drawn.
assay-endpoint: IC50

Query: Record lookup: for human arginase I (ARG I) (Homo sapiens), what IC50 belongs to NC(CCCCB(O)O)(CCN1CCCC1)C(=O)O (stereo not drawn) ?
Response: 251 to 1000 nM

Query: Lab request: please report IC50 under test system human arginase I (ARG I) (Homo sapiens) for CN1CCN(CC(N)(CCCCB(O)O)C(=O)O)CC1 (stereo not drawn) [compound 80, trihydrochloride]
Response: 2000 to 5000 nM

Query: Give IC50 (human arginase I (ARG I) (Homo sapiens)) of the following compound: NC(CCCCB(O)O)(CCN1CCC(CO)CC1)C(=O)O (stereo not drawn)
Response: 251 to 1000 nM

Query: What value of IC50 on human arginase I (ARG I) (Homo sapiens) does CNC(CCCCB(O)O)(CCCN1CCCCC1)C(=O)O (stereo not drawn) [compound 148, dihydrochloride] have?
Response: 0.1 to 250 nM

Query: IC50 of NC(CCCCB(O)O)(CCN1CCC(=O)CC1)C(=O)O (stereo not drawn) [compound 38, dihydrochloride] on human arginase I (ARG I) (Homo sapiens)?
Response: 2000 to 5000 nM

Query: For human arginase I (ARG I) (Homo sapiens), provide IC50 of NC(CCCCB(O)O)(CCNCCCc1cc(C(F)(F)F)ccc1Cl)C(=O)O (stereo not drawn) [compound 64, dihydrochloride] please.
Response: 0.1 to 250 nM

Query: # get_value(readout= IC50, system= human arginase I (ARG I) (Homo sapiens)) for CNC(CCCCB(O)O)C(=O)O (stereo not drawn) [compound 146, hydrochloride]
Response: 1000 to 2000 nM

Query: // map N[C@](CCCCB(O)O)(C[C@H]1CCCN1)C(=O)O (stereo in doubt) to recorded IC50 (system: human arginase I (ARG I) (Homo sapiens))
Response: 0.1 to 250 nM

Query: Value wanted: IC50 (human arginase I (ARG I) (Homo sapiens)) of entry NC(CCCCB(O)O)(CCN1CCN(c2ncccn2)CC1)C(=O)O (stereo not drawn) [compound 17, trihydrochloride]
Response: 2000 to 5000 nM

Query: // fetch human arginase I (ARG I) (Homo sapiens) IC50 for NC(CCCCB(O)O)(CCN1CCc2ccsc2C1)C(=O)O (stereo not drawn) [compound 62, dihydrochloride]
Response: 251 to 1000 nM

Query: What is its IC50 for human arginase I (ARG I) (Homo sapiens)? Entry: NC(CCCCB(O)O)(CCN1CCc2[nH][nH]c(=O)c2C1)C(=O)O (stereo not drawn) [compound 30, dihydrochloride]
Response: 251 to 1000 nM

Query: Fill in the recorded IC50 for this compound, with human arginase I (ARG I) (Homo sapiens) as test system: CN(CCc1ccccc1)CC[C@](N)(CCCCB(O)O)C(=O)O [compound 11, dihydrochloride]
Response: 0.1 to 250 nM

Query: Form field: IC50 recorded for C=CCC(N)(CCCCB(O)O)C(=O)O (stereo not drawn) with human arginase I (ARG I) (Homo sapiens) (enter value)
Response: 43 nM

Query: Recall the recorded IC50 for N[C@](CCCCB(O)O)(CCN1CCC[C@H](O)C1)C(=O)O [compound 5, dihydrochloride] with human arginase I (ARG I) (Homo sapiens) and state it.
Response: 1000 to 2000 nM

----------
- test-system: human arginase I (ARG I) (Homo sapiens)
- Sequence (P05089 1-322): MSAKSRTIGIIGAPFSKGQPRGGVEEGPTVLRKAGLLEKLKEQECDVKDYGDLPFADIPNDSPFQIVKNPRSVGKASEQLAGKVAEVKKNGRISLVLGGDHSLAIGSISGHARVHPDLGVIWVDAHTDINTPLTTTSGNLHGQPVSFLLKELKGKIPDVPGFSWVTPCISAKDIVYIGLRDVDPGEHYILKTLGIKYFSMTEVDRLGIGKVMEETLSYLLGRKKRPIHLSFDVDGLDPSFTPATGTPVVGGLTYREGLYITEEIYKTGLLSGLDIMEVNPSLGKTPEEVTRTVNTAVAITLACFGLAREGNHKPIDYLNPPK
- measurement-protocol: Inhibition of arginase I, spectrophotometric urea assay at 530 nm
- Assay type: biochemical
- assay-context: Formula II compounds, Table 2-A; read-out: Potency (ARG I)
Counter-ions that a name gives are not always drawn.
assay-endpoint: IC50

Some solved cases for reference:
NC(CCCCB(O)O)(C(=O)O)[C@H]1CCN(Cc2ccccc2)C1 (stereo partly shown) [Example 68-A, dihydrochloride]: 251 to 1000 nM
NC(CCCCB(O)O)(C(=O)O)[C@H]1C[C@@H](NCc2cccc3cccnc23)C1 (stereo partly shown) [Example 79-A, dihydrochloride]: 0.1 to 250 nM
NC(CCCCB(O)O)(C(=O)O)C1CCN(c2nc3ccc(Cl)cc3o2)CC1 (stereo not shown) [4-A, hydrochloride]: 251 to 1000 nM

Query: Dear colleague, I am looking for the recorded IC50 of the following molecule: NC(CCCCB(O)O)(C(=O)O)C1CCN(C(=O)NCCc2ccc(F)cc2)CC1 (stereo not shown) [33-A, hydrochloride]
Response: 1000 to 2000 nM
